Quick reference: melting point of the listed items.

The cases that follow already have their melting point on record.
CCOC(=O)c1cccc(-c2c(OC)cccc2C(=O)O)c1; 128 to 129 °C
CN(C)C(=NC(=Nc1ccccc1)N1CCOCC1)N(C)C; 115 to 119 °C
COc1ccc(-c2cc3ncnc(Nc4ccc5[nH]ccc5c4)c3s2)cc1OC; 171 to 178 °C
Cc1ccc(C)c2c1OC(=O)C2c1ccc(C(C)C)cc1 (stereo not given); 107 to 109 °C
CC1(COc2cccc(-c3noc4ccsc34)c2)CO1 (stereo not given); 84 to 85 °C

Q. Determine from records and report melting point for COc1ccc(S(=O)(=O)c2ncccn2)cc1
A. 72 °C

Q. Return value of melting point for input CC(=O)Nc1cc(Cn2c(C(=O)c3cc(C)cc(C)c3)c(C(C)C)c(=O)[nH]c2=O)ccn1 , no commentary.
A. 244 to 245 °C

Q. Give me measured melting point, please, for this compound: Cc1ccccc1Nc1c(C(=O)C(C)C)cnc2c(O)cccc12
A. 131 to 133 °C

Q. Give the reported value of melting point for this record: Cn1cncc1C(c1ccc(Cl)cc1)c1ccc2c(c1)c(-c1ccccc1)cc(=O)n2C (stereo not given)
A. 96.8 °C

Q. Give the measured melting point for CCOC(=O)c1ncn(-c2nc(C)c(Cl)s2)c1S(N)(=O)=O
A. 136 to 139 °C

Q. Kindly indicate its recorded melting point. Item: Cc1ccc(C(=O)c2sc(Nc3ccc(S(N)(=O)=O)cc3)nc2N)c(C)c1
A. 242 to 244 °C

Q. Please supply the value of reported melting point for the item Cn1ncc(/C=C/C(=O)Nc2ccc(CNC(=O)c3ccccc3)cc2)c1-c1ccc(F)cc1
A. 250 to 251 °C

Q. Item CC(=O)C(=Cc1ccc([N+](=O)[O-])o1)C(C)=O : provide melting point
A. 117 to 120 °C

Q. Return melting point for the following compound: Cc1ccc(C2C(=O)Oc3c2cc(C(C)(C)C)cc3C(C)(C)C)cc1C (stereo not given)
A. 130 to 132 °C

Q. Assign melting point to the following record: N=C(NO)c1ccc(-c2ccc(-c3nc4cc(C(=N)NO)ccc4[nH]3)cc2)c(OCc2ccccc2)c1
A. 250 to 253 °C
